# Tested on: Cucurbit Leaf Beetle (Aulacophora femoralis)
# method: Test against cucurbit leaf beetle (Aulacophora femoralis), leaf immersion
# Format: in vivo
# condition_summary: 100 ppm; cucumber leaves immersed; second-instar larvae; after 7 days
measured_quantity: insecticidal activity (%)
Unit % implied. Number only.

Reported insecticidal activity, compound FC(F)(F)c1cc(C(F)(F)F)cc(C2(C(F)(F)F)CN=C(c3cnc(-n4cncn4)c(Cl)c3)C2)c1 (centres unmarked) [1-491] : ____
100

Input FC(F)(F)C1(c2cc(Cl)c(Cl)c(Cl)c2)CN=C(c2ccc(-n3cncn3)cc2)C1 (centres unmarked) [1-27]
100

Input N#Cc1cc(C2=NCC(c3cc(C(F)(F)F)cc(C(F)(F)F)c3)(C(F)(F)F)C2)cnc1-n1cncn1 (centres unmarked) [1-494]
100

Input N#Cc1cc(C2=NCC(c3ccnc(C(F)(F)C(F)(F)F)c3)(C(F)(F)F)C2)ccc1-n1cncn1 (centres unmarked) [1-156]
100

Input CC(=O)NCc1ccc(C2=NCC(c3cc(Cl)c(Cl)c(Cl)c3)(C(F)(F)F)C2)cc1 (centres unmarked) [2-168]
100

Input N#Cc1cc(C2=NCC(c3cccc(C(F)(F)F)c3F)(C(F)(F)F)C2)ccc1-n1cncn1 (centres unmarked) [1-19]
100

Input N#Cc1cc(C2=NCC(c3ccc(F)c(C(F)(F)F)c3)(C(F)(F)F)C2)ccc1-n1cncn1 (centres unmarked) [1-4]
100

Input N#Cc1cc(C2=NCC(c3cc(Cl)c(Br)c(Cl)c3)(C(F)(F)F)C2)ccc1-n1cncn1 (centres unmarked) [1-15]
100

###

# System: adult engorged female Boophilus microplus ticks
# method: Boophilus microplus (dip)
# Assay type: in vivo
# condition_summary: 100 ppm; ticks immersed one minute; after 7 days
# Protocol: Solvent: Dimethylsulfoxid To produce a suitable preparation of active compound, 10 mg of active compound are dissolved in 0.5 ml solvent, and the concentrate is diluted with water to the desired concentration. Eight to ten adult engorged female Boophilus microplus ticks are placed in perforated plastic beakers and immersed in aqueous compound solution for one minute. […] Egg deposition of fertile eggs is monitored after. After 7 days mortality in % is determined. […]
measured_quantity: mortality (%)
Unit % implied. Number only.

Reported mortality, compound Fc1cc(C2=NCC(c3cc(Cl)c(Cl)c(Cl)c3)(C(F)(F)F)C2)ccc1-n1cncn1 (stereo not shown) : ____
95

Input N#Cc1cc(C2=NCC(c3cc(Cl)c(Cl)c(Cl)c3)(C(F)(F)F)C2)cnc1-n1cncn1 (stereo not shown)
90

Input N#Cc1cc(C2=NCC(c3cc(Cl)c([N+](=O)[O-])c(Cl)c3)(C(F)(F)F)C2)ccc1-n1cncn1 (stereo not shown)
80

Input N#Cc1cc(C2=NCC(c3cc(OC(F)F)cc(OC(F)F)c3)(C(F)(F)F)C2)ccc1-n1cncn1 (stereo not shown)
90
